- protocol notes: Dog plasma stability
- Type: in vitro ADME
- cond: dog plasma
outcome measure: Observations: stability / GNX production in dog plasma

CC(=O)[C@H]1CC[C@H]2[C@@H]3CC[C@H]4C[C@](C)(OC(=O)COC(=O)C(C)(C)N)CC[C@]4(C)[C@H]3CC[C@]12C [Compound 218]: No GNX produced
CC(=O)[C@H]1CC[C@H]2[C@@H]3CC[C@H]4C[C@](C)(OC(=O)COC(=O)C(C)(C)OC(=O)CN(CCO)CCO)CC[C@]4(C)[C@H]3CC[C@]12C [Compound 228]: No GNX produced
CC(=O)OCCN(C)CC(=O)OC(C)(C)C(=O)OCC(=O)O[C@]1(C)CC[C@@]2(C)[C@@H](CC[C@@H]3[C@@H]2CC[C@]2(C)[C@@H](C(C)=O)CC[C@@H]32)C1 [Compound 242]: No GNX produced
